- target: T1, hIL-6R-hFc (human, UniProt P08887 20-358)
- T1 construct: also called dimeric hIL-6R; Dimer; not shown: human Fc (hFc)
- T1 sequence: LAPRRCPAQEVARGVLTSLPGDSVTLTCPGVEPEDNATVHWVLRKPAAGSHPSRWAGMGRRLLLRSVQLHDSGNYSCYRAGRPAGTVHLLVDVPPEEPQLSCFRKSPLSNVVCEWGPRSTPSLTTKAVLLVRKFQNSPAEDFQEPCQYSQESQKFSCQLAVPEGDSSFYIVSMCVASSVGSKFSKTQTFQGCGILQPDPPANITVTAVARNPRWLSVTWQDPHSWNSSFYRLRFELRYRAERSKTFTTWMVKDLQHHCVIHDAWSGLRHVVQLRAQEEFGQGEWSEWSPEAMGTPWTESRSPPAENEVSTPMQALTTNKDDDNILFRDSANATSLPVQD
- method.notes: SPR (BIAcore), antibody captured on anti-mouse IgG surface, dimeric hIL-6R
Please go through the items and note down their pKd.
pKd here is simply -log10 of the concentration when that concentration is written in mol/L.

Entry VQ8A9-6 (antibody, V domains shown, Human variable regions with mouse constant region (hybridoma-derived chimeric antibody); also called VQ8A9-6 mIgG1) VH: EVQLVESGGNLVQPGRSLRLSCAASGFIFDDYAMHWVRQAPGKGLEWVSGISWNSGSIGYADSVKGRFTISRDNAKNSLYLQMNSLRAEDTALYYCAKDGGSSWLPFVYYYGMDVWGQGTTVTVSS VL: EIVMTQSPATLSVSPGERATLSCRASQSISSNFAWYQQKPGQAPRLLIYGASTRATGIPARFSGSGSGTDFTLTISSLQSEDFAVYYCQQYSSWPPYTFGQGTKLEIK ; pKd = 10.00

Quick note, pKd for VV6C10-1 (antibody, V domains shown, Human variable regions with mouse constant region) VH: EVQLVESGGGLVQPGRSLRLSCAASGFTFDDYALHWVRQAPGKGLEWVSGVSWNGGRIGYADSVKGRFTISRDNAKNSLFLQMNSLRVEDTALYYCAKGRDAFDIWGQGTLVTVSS VL: EIVLTQSPATLSLSPGERATLSCRASQSVSSYLAWYQQKPGQAPRLLIYDASNRATGIPARFSGSGSGTDFTLTISSLEPEDFAFYYCQQRNNRPPFTFGPGTKVDVR landed at 10.49

Kindly note the recorded pKd for VV6A9-5 (antibody, V domains shown, Human variable regions with mouse constant region; also called VV6A9-5 mIgG2a) VH: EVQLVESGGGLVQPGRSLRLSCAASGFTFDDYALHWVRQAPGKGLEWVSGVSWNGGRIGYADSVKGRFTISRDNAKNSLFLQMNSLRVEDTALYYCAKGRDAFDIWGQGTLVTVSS VL: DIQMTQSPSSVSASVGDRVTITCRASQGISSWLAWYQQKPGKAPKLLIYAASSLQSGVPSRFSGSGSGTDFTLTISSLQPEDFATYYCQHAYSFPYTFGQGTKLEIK , which is 9.84
